The values you see were collected from patent US20230348603A1.

Target: T1, Human VSIG4-L-Fc (human)
T1 construct: also called hVSIG4-L-Fc; hVSIG4-L
T1 sequence (chain, as listed by the source limits assumed): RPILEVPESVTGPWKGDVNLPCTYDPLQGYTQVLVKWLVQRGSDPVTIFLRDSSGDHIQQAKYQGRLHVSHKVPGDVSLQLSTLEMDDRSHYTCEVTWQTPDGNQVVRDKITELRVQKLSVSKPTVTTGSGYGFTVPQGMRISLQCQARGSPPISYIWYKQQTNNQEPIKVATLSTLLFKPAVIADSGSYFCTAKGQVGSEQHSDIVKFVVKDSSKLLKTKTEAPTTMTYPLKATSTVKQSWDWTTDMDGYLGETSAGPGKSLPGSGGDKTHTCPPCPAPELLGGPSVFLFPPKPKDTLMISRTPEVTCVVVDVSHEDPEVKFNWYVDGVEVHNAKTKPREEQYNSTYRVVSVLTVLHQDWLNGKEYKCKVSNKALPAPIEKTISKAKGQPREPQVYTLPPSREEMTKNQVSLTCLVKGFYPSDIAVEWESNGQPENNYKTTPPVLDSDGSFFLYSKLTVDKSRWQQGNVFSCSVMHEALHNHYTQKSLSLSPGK
Assay: BLI binning on hVSIG4-L-Fc, competitor 14C05 first;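 further: normalized to binding of second antibody without first competitor antibody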
ENDPOINT NAME: normalized maximum binding nm shift (normalized)
Return type: number; implicit unit normalized.

I would be grateful if you could share the reported normalized maximum binding nm shift for 14C05 mouse/human chimeric IgG4 (S228P) kappa (antibody, V domains shown) VH: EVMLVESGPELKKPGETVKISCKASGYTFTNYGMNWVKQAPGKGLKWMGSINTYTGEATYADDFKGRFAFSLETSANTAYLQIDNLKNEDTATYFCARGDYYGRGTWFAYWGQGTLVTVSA VL: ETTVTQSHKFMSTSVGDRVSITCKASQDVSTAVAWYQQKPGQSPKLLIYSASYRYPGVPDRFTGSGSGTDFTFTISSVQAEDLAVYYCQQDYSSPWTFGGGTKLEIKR .
0.11
